Reference source: paper PMC5540273

tested on: LCK; conditions: concentration: 1 μM, replicates: in singlicate; n = 1;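 also: KINOMEscan kinase panel screen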
The threshold is inclusive: %Inh of exactly 60% counts as t; values below receive f.

Determine whether measured %Inh meets or exceeds 60% for COC(=O)Nc1nc2ccc(Oc3ccc(NC(=O)Nc4cc(C(F)(F)F)ccc4F)cc3)cc2n1C.Cl [GW692089]
t

Determine whether measured %Inh meets or exceeds 60% for COc1ccc(Nc2nccc(N3CCC(NC(=O)Nc4cccc(OC)c4)C3)n2)cc1 (stereo not shown) [GSK1379742]
f

Determine whether measured %Inh meets or exceeds 60% for Nc1ncnc2c1nc(-c1ccccc1)n2-c1ccccc1 [SKF-97293]
f

Determine whether measured %Inh meets or exceeds 60% for COc1cc(Nc2nccc(-c3c(-c4cccc(NC(=O)c5c(F)cccc5F)c4)nn4ncccc34)n2)cc(OC)c1OC [GSK327238]
t

Determine whether measured %Inh meets or exceeds 60% for Cc1occc1-c1ncc(OC[C@@H](N)Cc2c[nH]c3ccccc23)cc1-c1ccc2[nH]nc(C)c2c1.O=C(O)C(F)(F)F [GSK682037]
t

Determine whether measured %Inh meets or exceeds 60% for CNC(=O)c1ccccc1Nc1nc(Nc2ccc(N3CCOCC3)cc2)ncc1Cl.Cl [GSK1576028]
t

Determine whether measured %Inh meets or exceeds 60% for CCS(=O)(=O)c1ccc(OC)c(Nc2nccc(-c3c(-c4cccc(NC(=O)c5c(F)cccc5F)c4)nn4ncccc34)n2)c1 [GSK326180]
f

Determine whether measured %Inh meets or exceeds 60% for CN1CCN(CCCNc2nccc(-c3c(-c4ccc(F)cc4)nn4cc(C(F)(F)F)ccc34)n2)CC1 [GW621581]
f

Determine whether measured %Inh meets or exceeds 60% for Cl.c1ccc(-c2ccc3c(Nc4ccc5[nH]ncc5c4)ccnc3c2)nc1 [GW440137]
f

Determine whether measured %Inh meets or exceeds 60% for COc1cc(Nc2nccc(N3CCC(NC(=O)c4cc5ccccc5s4)C3)n2)cc(OC)c1OC (stereo not shown) [GSK1379760]
f

Determine whether measured %Inh meets or exceeds 60% for COc1cccc(C2=C(Nc3ccc(Cl)c(C(=O)O)c3)C(=O)NC2=O)c1 [SB-390769]
f

Determine whether measured %Inh meets or exceeds 60% for CC(=O)N1CCN(c2ccc(Nc3nccc(-c4sc(C(C)C)nc4-c4cccc(NS(=O)(=O)c5cccc(Cl)c5)c4)n3)cn2)CC1 [GSK1660437]
t

Determine whether measured %Inh meets or exceeds 60% for Oc1cc(Nc2ccnc3cc(I)ccc23)ccc1F [GW552771]
t

Determine whether measured %Inh meets or exceeds 60% for O=C(Nc1ccccc1F)NC1CCN(c2ccnc(Nc3ccc(F)cc3)n2)CC1 [GSK1379800]
f

Determine whether measured %Inh meets or exceeds 60% for COc1ccc(Nc2nccc(NCCNC(=O)c3cc4ccccc4s3)n2)cc1 [GSK1379896]
f

Determine whether measured %Inh meets or exceeds 60% for Cl.Cl.NCC(NCc1ccc(-c2ccnc3[nH]ccc23)s1)c1ccccc1 (stereo not shown) [GSK1321565]
f

* * *

system: AKT2; details: concentration: 1 μM, replicates: in singlicate; n = 1
Provide the recorded %Inh for the entries that follow.
Kindly answer with a numeric value in %, unit omitted.

Please report %Inh with AKT2 for item COC(=O)Nc1nc2cc(Oc3ccc(NC(=O)Nc4cc(C(F)(F)F)ccc4F)cn3)ccc2[nH]1.Cl.Cl .
0

Please report %Inh with AKT2 for item O=c1[nH]cc(-c2ccc(N3CCOCC3)cc2)c2sc(-c3cn[nH]c3)cc12 .
16

Please report %Inh with AKT2 for item COc1cccc(NC(=O)NC2CCN(c3ccnc(Nc4cc(OC)c(OC)c(OC)c4)n3)C2)c1 (stereo not shown) .
7

Please report %Inh with AKT2 for item CC(C)(C)c1ccc2nccc(Nc3cccc(O)c3)c2c1 .
0

Please report %Inh with AKT2 for item O=C(Nc1cccc(-c2nn3ncccc3c2-c2ccnc(Nc3ccccc3)n2)c1)c1c(F)cccc1F .
16

Please report %Inh with AKT2 for item CN1CCN(Cc2cccc(-c3ccc4c(Nc5ccc(Oc6ccccc6)cc5)ccnc4c3)c2)CC1 .
11

Please report %Inh with AKT2 for item Cc1ccc(C(=O)N2CC[C@@H](O)C2)cc1-n1c(C)cc(OCc2ccc(F)cc2F)c(Br)c1=O .
0
